tested on: Escherichia coli TOP10; test: shrunken log2 fold change of peptide-encoding DNA abundance (4.5 h post-induction vs induction); higher = less antimicrobial activity (less host growth inhibition); conditions: time post-induction: 4.5 h; library: site-saturation at positions 5, 18, 19, 20;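 further: peptides expressed intracellularly from a pBAD plasmid library in pooled LB shake-flask culture, induced with 0.3% L-arabinose, DNA abundance read by NGS, three biological replicates, DESeq2 with apeglm shrinkage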
MEASURED ATTRIBUTE: shrunken log2 fold change

PRIMARY SEQUENCE	MEASURED ON	TEST VALUE
RRIRTRPPRLPRPRPRPFREPRP	Escherichia coli TOP10	-0.0376
RRIRQRPPRLPRPRPRPHCSPRP	Escherichia coli TOP10	-0.104
RRIRMRPPRLPRPRPRPNFPPRP	Escherichia coli TOP10	-0.186
RRIRWRPPRLPRPRPRPQASPRP	Escherichia coli TOP10	-0.11
RRIRWRPPRLPRPRPRPVREPRP	Escherichia coli TOP10	0.0727
RRIRHRPPRLPRPRPRPILAPRP	Escherichia coli TOP10	0.00463
RRIRMRPPRLPRPRPRPMCGPRP	Escherichia coli TOP10	0.00224
RRIRVRPPRLPRPRPRPNPMPRP	Escherichia coli TOP10	0.0227
RRIRGRPPRLPRPRPRPPIMPRP	Escherichia coli TOP10	0.375
RRIRARPPRLPRPRPRPPTMPRP	Escherichia coli TOP10	0.407
RRIRDRPPRLPRPRPRPLFMPRP	Escherichia coli TOP10	0.154
RRIRHRPPRLPRPRPRPGASPRP	Escherichia coli TOP10	-0.196
RRIRWRPPRLPRPRPRPNMYPRP	Escherichia coli TOP10	-0.436
RRIRRRPPRLPRPRPRPYDLPRP	Escherichia coli TOP10	-0.546
RRIRRRPPRLPRPRPRPKWIPRP	Escherichia coli TOP10	-0.096

Each recorded value in this set is attributed to the supplement of paper PMC9112550.
